Data credit: paper PMC6272637

Test system: primary rat hepatocytes injured by D-GalN
TEST SUMMARY: Hepatoprotective activity in primary rat hepatocytes injured by D-GalN (AST, LDH levels)
Type: cell-based
CONDITION CONTEXT: 30 μM compound; primary rat hepatocytes, 2 mM D-GalN; model 17.1 ± 2.4, control 6.9 ± 1.7; mean ± SD, n = 3
ENDPOINT: AST (U·L^−1)
Numbers only, in U·L^−1.

Look over these answered cases.
CC1(C(=O)O)CCC2(C)CCC3(C)C(=CC(=O)C4C5(C)CCC(OC6OC(C(=O)O)C(O)C(O)C6OC6OC(C(=O)O)C(O)C(O)C6O)C(C)(CO)C5CCC43C)C2C1 (centres unmarked) [Compound 4, licorice-saponin G2]    14.8
CC(=O)OC1CC(C)(C(=O)O)CC2C3=CC(=O)C4C5(C)CCC(OC6OC(C(=O)O)C(O)C(O)C6OC6OC(C(=O)O)C(O)C(O)C6O)C(C)(C)C5CCC4(C)C3(C)CCC12C (centres unmarked)    16.5

Switching to the query record.
Per the records, this compound ( CC12CCC3(C)C(=CC(=O)C4C5(C)CCC(OC6OC(C(=O)O)C(O)C(O)C6OC6OC(C(=O)O)C(O)C(O)C6O)C(C)(C)C5CCC43C)C1CC(C)(C(=O)O)C(O)C2 (centres unmarked) [Compound 2, macedonoside A] ) has AST equal to 14.6
